Data provenance is patent US10561681B2.

Entries and their measured pIC50 follow.
Tested on: HT-1080 (human fibrosarcoma)
Experiment: In vitro cytotoxicity, MTT test
Assay type: cell-based
Conditions: HT-1080, MTT, 72 h, read-out: Cytotoxicity IC50, HT-1080
pIC50: −log10 of the molar value.
observable: pIC50

[[record]]
molecule = "COC(=O)c1cc2ccc3c(Br)c(C4(OC)CCCCC4)[se]c3c2oc1=O [Compound I-4]"
system_tested = "HT-1080 (human fibrosarcoma)"
observable = "pIC50"
relation_sign = "="
observed_measurement = 4.28

[[record]]
molecule = "COC(=O)c1cc2ccc3c(Br)c(C4=CCCC4)[se]c3c2oc1=O [Compound I-2]"
system_tested = "HT-1080 (human fibrosarcoma)"
observable = "pIC50"
relation_sign = "="
observed_measurement = 3.96

[[record]]
molecule = "COC1(c2[se]c3c(ccc4cc(C(=O)N5CCOCC5)c(=O)oc43)c2Br)CCCCC1 [Compound I-22]"
system_tested = "HT-1080 (human fibrosarcoma)"
observable = "pIC50"
relation_sign = "="
observed_measurement = 4.42

[[record]]
molecule = "CCCCCCCCCCOC(=O)c1cc2ccc3c(Br)c(C4(O)CCCCC4)[se]c3c2oc1=O [Compound I-7]"
system_tested = "HT-1080 (human fibrosarcoma)"
observable = "pIC50"
relation_sign = "<"
observed_measurement = 3.79

[[record]]
molecule = "COC1(c2[se]c3c(ccc4cc(C(=O)O)c(=O)oc43)c2Br)CCCCC1 [Compound I-12]"
system_tested = "HT-1080 (human fibrosarcoma)"
observable = "pIC50"
relation_sign = "="
observed_measurement = 4.29

[[record]]
molecule = "O=C(c1cc2ccc3c(Br)c(C4=CCCCC4)[se]c3c2oc1=O)N1CCOCC1 [Compound I-20]"
system_tested = "HT-1080 (human fibrosarcoma)"
observable = "pIC50"
relation_sign = "="
observed_measurement = 4.04

[[record]]
molecule = "O=C(c1cc2ccc3c(Br)c(C4=CCCCC4)[se]c3c2oc1=O)N1CCCCC1 [Compound I-19]"
system_tested = "HT-1080 (human fibrosarcoma)"
observable = "pIC50"
relation_sign = "="
observed_measurement = 4.30

[[record]]
molecule = "CC(C)CCC[C@@H](C)[C@H]1CC[C@H]2[C@@H]3CC=C4C[C@@H](OC(=O)c5cc6ccc7c(Br)c(C8=CCCCC8)[se]c7c6oc5=O)CC[C@]4(C)[C@H]3CC[C@]12C [Compound I-17]"
system_tested = "HT-1080 (human fibrosarcoma)"
observable = "pIC50"
relation_sign = "<"
observed_measurement = 3.93

[[record]]
molecule = "COC(=O)c1cc2ccc3c(Br)c(CN4CCCCC4)[se]c3c2oc1=O [Compound I-8]"
system_tested = "HT-1080 (human fibrosarcoma)"
observable = "pIC50"
relation_sign = "<"
observed_measurement = 3.72

[[record]]
molecule = "CCCCCCCCOC(=O)c1cc2ccc3c(Br)c(C4=CCCCC4)[se]c3c2oc1=O [Compound I-16]"
system_tested = "HT-1080 (human fibrosarcoma)"
observable = "pIC50"
relation_sign = "<"
observed_measurement = 3.93

[[record]]
molecule = "COC1(c2[se]c3c(ccc4cc(C(=O)O[C@H]5CC[C@@]6(C)C(=CC[C@H]7[C@@H]8CC[C@H]([C@H](C)CCCC(C)C)[C@@]8(C)CC[C@@H]76)C5)c(=O)oc43)c2Br)CCCCC1 [Compound I-18]"
system_tested = "HT-1080 (human fibrosarcoma)"
observable = "pIC50"
relation_sign = "<"
observed_measurement = 3.93

[[record]]
molecule = "COC(=O)c1cc2ccc3c(Br)c(C(C)(C)O)[se]c3c2oc1=O [Compound I-1]"
system_tested = "HT-1080 (human fibrosarcoma)"
observable = "pIC50"
relation_sign = "="
observed_measurement = 3.65

[[record]]
molecule = "COC(=O)c1cc2ccc3c(Br)c(C4(O)CCCCC4)[se]c3c2oc1=O [Compound I-3]"
system_tested = "HT-1080 (human fibrosarcoma)"
observable = "pIC50"
relation_sign = "="
observed_measurement = 4.57

[[record]]
molecule = "COC(=O)c1cc2ccc3c(Br)c(CN4CCN(C)CC4)[se]c3c2oc1=O [Compound I-10]"
system_tested = "HT-1080 (human fibrosarcoma)"
observable = "pIC50"
relation_sign = "="
observed_measurement = 3.77

[[record]]
molecule = "COC(=O)c1cc2ccc3c(Br)c(CN4CCOCC4)[se]c3c2oc1=O [Compound I-9]"
system_tested = "HT-1080 (human fibrosarcoma)"
observable = "pIC50"
relation_sign = "="
observed_measurement = 4.07

[[record]]
molecule = "O=C(O)c1cc2ccc3c(Br)c(C4(O)CCCCC4)[se]c3c2oc1=O [Compound I-11]"
system_tested = "HT-1080 (human fibrosarcoma)"
observable = "pIC50"
relation_sign = "="
observed_measurement = 4.11

[[record]]
molecule = "COCCN(CCOC)C(=O)c1cc2ccc3c(Br)c(C4=CCCCC4)[se]c3c2oc1=O [Compound I-21]"
system_tested = "HT-1080 (human fibrosarcoma)"
observable = "pIC50"
relation_sign = "="
observed_measurement = 4.29

